Molecular target: UniProt:O00519
Sequence (O00519 whole entry): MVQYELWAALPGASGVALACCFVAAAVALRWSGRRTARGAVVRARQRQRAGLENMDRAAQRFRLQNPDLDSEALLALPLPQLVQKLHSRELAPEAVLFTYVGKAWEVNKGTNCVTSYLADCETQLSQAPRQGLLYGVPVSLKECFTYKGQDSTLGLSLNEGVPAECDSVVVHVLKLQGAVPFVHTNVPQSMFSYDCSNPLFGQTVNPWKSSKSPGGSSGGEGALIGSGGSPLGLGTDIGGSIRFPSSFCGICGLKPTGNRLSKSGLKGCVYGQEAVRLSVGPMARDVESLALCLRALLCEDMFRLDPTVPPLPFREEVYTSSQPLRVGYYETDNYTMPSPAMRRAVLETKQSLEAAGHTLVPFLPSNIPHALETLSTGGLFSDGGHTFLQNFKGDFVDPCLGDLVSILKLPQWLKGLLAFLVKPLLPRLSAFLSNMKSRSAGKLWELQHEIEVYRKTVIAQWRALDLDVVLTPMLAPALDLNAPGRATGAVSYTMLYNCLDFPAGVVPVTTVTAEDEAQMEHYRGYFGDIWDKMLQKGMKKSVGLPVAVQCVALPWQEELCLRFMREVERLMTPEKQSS
Experiment: Inhibition of human recombinant FAAH expressed in COS7 cells using anandamide as substrate
Assay type: cell-based, COS-7
Details: read-out: pIC50 (converted)
reported-property: IC50 (nM)

Some solved entries appear below for comparison.
| sample-smiles | readout-units | IC50 |
| --- | --- | --- |
| O=C(N1CCN(Cc2ccc(Oc3ccccc3)cc2)CC1)n1ccnc1 | nM | 17.4 |
| O=C(N1CCN(C(c2ccccc2)c2ccccc2)CC1)n1cncn1 | nM | 447 |
| O=C(N1CCN(c2ccccc2)CC1)n1cncn1 | nM | 6.03 |
| O=C(N1CCN(Cc2ccc(Oc3ccccc3)cc2)CC1)n1nnc2ccccc21 | nM | 708 |
| O=C(N1CCN(Cc2cccc(Oc3ccccc3)c2)CC1)n1nnc2ccccc21 | nM | 89.1 |
| O=C(N1CCC(C(c2ccc3c(c2)OCO3)c2ccc3c(c2)OCO3)CC1)n1cncn1 | nM | 4790 |

1 = O=C(N1CCN(c2ccccc2)CC1)n1nnc2cccnc21
2 = CCOC(=O)N1CCN(C(=O)n2nnc3cccnc32)CC1
**Q:** Given 1 and 2 , report the one with the higher recorded IC50. Kindly give the label for the entry you pick.
**A:** 2

1 = O=C(N1CCN(Cc2cccc(Oc3ccccc3)c2)CC1)n1cncn1
2 = O=C(N1CCN(C(c2ccccc2)c2ccccc2)CC1)n1nnc2cccnc21
3 = O=C(N1CCC(C(O)(c2ccc3c(c2)OCO3)c2ccc3c(c2)OCO3)CC1)n1cncn1
**Q:** Please produce an ascending ranking of these compounds based on IC50. Respond with the label ranking, as requested.
**A:** 1, 2, 3
